- STUDY_TARGET: Testis-specific serine/threonine-protein kinase 2 (Homo sapiens) (UniProt Q96PF2);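 further: each value is the mean percent inhibition of TSSK2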
- Sequence (Q96PF2 whole entry): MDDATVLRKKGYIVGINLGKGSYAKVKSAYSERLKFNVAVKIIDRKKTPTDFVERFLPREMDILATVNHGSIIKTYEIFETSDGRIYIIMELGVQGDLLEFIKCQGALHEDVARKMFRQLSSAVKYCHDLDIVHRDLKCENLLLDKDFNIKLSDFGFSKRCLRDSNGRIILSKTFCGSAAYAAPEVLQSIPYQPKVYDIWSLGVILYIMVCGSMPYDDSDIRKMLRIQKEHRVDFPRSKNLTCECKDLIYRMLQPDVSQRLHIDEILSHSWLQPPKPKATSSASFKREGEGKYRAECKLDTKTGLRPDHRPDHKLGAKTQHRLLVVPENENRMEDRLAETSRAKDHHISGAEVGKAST
- EXPERIMENTAL_CONDITIONS: at 1 µM
QUANTITY_NAME: inhibition (%)
Just the number in %, nothing appended.

inhibition in this record for O=C1Nc2ccccc2/C1=C/Nc1ccc(-n2cncn2)cc1 : 5.54

inhibition in this record for COc1ccc2cc(-c3c(-c4ccncc4)nc(-c4ccc(S(C)(=O)=O)cc4C)n3C)ccc2c1 : 3.81

inhibition in this record for CN(C)CCOc1ccc(-c2cc(-c3ccc4c(c3)CCC4=NO)c(-c3ccncc3)o2)cc1 : 1.16

inhibition in this record for COc1ccc(C2=C(N3CCc4ccccc43)C(=O)NC2=O)cc1 : 3.35

inhibition in this record for NC(=O)c1cc(-c2ccncc2)cc(-c2ccccc2)c1N : 1.64

inhibition in this record for COc1ccc2ncn(-c3cc(O[C@H](C)c4ccccc4Cl)c(C(N)=O)s3)c2c1 : 1.28

inhibition in this record for O=C(Nc1n[nH]c2cc(-c3ccccc3)ccc12)C1CC1 : 0.6

inhibition in this record for NS(=O)(=O)c1ccc(Nc2cc(-c3ccc(O)c(F)c3)n[nH]2)cc1 : -0.52

inhibition in this record for COc1cc(C)c(N(C)C(=O)CN(C)C)cc1Nc1nc(Nc2cccc(F)c2C(N)=O)c2cc[nH]c2n1 : 4.87

inhibition in this record for CCc1cccc(CC)c1/C=C/c1cncc(C(=O)NC)c1 : -3.19

---

- STUDY_TARGET: Serine/threonine-protein kinase Sgk1 (Homo sapiens)
- EXPERIMENTAL_CONDITIONS: at 0.1 µM
- Description: GSK_PKIS: SGK1 mean inhibition at 0.1 uM [Nanosyn]
Listed here: items and their measured inhibition.
Just the number in %, nothing appended.

// worked examples, inhibition included
CCS(=O)(=O)c1ccc(OC)c(Nc2ncc(-c3ccccc3Cl)o2)c1	-0.42
c1ccc(Oc2ccc(Nc3ncc(-c4ccccc4)o3)cc2)cc1	2.19
Cc1ccc(C(=O)NC2CCC2)cc1-c1ccc(C(=O)NCC2CC2)cc1	2.17

inhibition in this record for Clc1ccc(CNc2nccc(-c3cnn4ncccc34)n2)cc1 : 0.33

inhibition in this record for NC(=O)c1cc(-c2ccc(F)cc2)cc(-c2ccncc2)c1N : 3.79

inhibition in this record for CCc1cccc(CC)c1/C=C/c1cncc(C(=O)NC)c1 : 2.19

---

- STUDY_TARGET: Calcium/calmodulin-dependent protein kinase type II subunit alpha (Homo sapiens);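 further: reported value is a mean percent inhibition of CAMK2A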
- EXPERIMENTAL_CONDITIONS: at 1 µM
Listed here: items and their measured inhibition.

// worked examples, inhibition included
Clc1ccc(CNc2nccc(-c3cnn4ncccc34)n2)cc1	4.51%
CCS(=O)(=O)c1ccc(OC)c(Nc2ncc(-c3cccc(-c4ccccc4F)c3)o2)c1	3.98%
O=C(NCC1CC1)c1ccc(-c2cccc(C(=O)NC3CC3)c2)cc1	2.74%
O=C(Nc1ccc(Oc2ccc3[nH]c(NC(=O)c4ccccc4)nc3c2)cc1)Nc1cc(C(F)(F)F)ccc1F	2.85%
CN(c1ccc(NC(=O)Nc2c(Cl)cccc2Cl)cc1)c1ccnc(Nc2cccc(CS(C)(=O)=O)c2)n1	2.73%
COc1ccc(C2=C(N3CCc4ccccc43)C(=O)NC2=O)cc1	4.72%

inhibition in this record for CCc1ccc(Oc2nccc(-c3c(-c4ccc(F)cc4)ncn3C3CCNCC3)n2)cc1 : 5.86%

inhibition in this record for Cc1ccc(NC(=O)c2ccoc2)cc1-c1ccc(C(=O)NCC2CC2)cc1 : -3.72%

inhibition in this record for CN(C)c1ccc2c(c1)/C(=C/Nc1ccc(S(N)(=O)=O)cc1)C(=O)N2 : 3.56%

inhibition in this record for NS(=O)(=O)c1ccc(Nc2cc(-c3ccc(O)c(F)c3)n[nH]2)cc1 : -4.72%

---

Listed here: items and their measured inhibition.
- STUDY_TARGET: Tyrosine-protein kinase receptor TYRO3 (Homo sapiens) (UniProt Q06418);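 further: reported percentages are averaged inhibition values of TYRO3 kinase activity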
- Sequence (Q06418 whole entry): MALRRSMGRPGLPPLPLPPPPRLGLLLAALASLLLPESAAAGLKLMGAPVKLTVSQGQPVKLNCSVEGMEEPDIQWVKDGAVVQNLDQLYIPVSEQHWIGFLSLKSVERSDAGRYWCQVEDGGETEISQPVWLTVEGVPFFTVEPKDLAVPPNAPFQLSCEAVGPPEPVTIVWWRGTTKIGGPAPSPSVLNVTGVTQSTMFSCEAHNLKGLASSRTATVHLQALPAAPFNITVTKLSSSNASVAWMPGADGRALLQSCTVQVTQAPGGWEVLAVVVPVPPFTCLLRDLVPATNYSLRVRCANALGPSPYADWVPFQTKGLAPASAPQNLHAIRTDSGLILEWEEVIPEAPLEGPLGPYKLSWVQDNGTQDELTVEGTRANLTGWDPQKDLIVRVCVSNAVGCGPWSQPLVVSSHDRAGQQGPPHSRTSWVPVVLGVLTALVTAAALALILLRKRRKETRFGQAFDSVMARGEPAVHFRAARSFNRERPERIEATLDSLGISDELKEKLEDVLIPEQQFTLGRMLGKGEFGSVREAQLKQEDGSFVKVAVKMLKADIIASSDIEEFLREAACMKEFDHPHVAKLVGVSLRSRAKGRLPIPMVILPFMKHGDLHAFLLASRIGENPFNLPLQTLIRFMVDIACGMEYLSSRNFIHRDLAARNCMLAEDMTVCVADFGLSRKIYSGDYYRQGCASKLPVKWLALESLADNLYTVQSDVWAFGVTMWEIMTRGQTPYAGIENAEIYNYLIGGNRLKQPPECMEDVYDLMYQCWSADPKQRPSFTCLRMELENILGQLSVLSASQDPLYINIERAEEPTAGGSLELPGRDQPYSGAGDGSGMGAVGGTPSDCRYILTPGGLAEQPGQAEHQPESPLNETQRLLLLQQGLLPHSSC
- EXPERIMENTAL_CONDITIONS: at 0.1 µM
# output: numeric value plus its unit

// worked examples, inhibition included
COc1cc(Nc2ncc3c(C)nc(-c4cccc(C(F)(F)F)c4)n3n2)cc(OC)c1OC	4.04%
COc1cccc(-n2cnc3c(N/N=C/c4ccncc4)ncnc32)c1	1.07%
Cc1ccc(NC(=O)c2ccoc2)cc1-c1ccc(C(=O)NCC2CC2)cc1	0.97%
O=C(NCC1CC1)c1ccc(-c2cccc(C(=O)NC3CC3)c2)cc1	3.93%

Shift focus to the following entry.
inhibition in this record for N#Cc1ccc(Oc2nccc(-c3c(-c4ccc(F)cc4)ncn3C3CCNCC3)n2)cc1 : 2.69%

---

- STUDY_TARGET: MAP/microtubule affinity-regulating kinase 4 (Homo sapiens) (UniProt Q96L34);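 further: reported value is a mean MARK4 inhibition at 1 µM, taken from the GSK PKIS screening set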
- Sequence (Q96L34 whole entry): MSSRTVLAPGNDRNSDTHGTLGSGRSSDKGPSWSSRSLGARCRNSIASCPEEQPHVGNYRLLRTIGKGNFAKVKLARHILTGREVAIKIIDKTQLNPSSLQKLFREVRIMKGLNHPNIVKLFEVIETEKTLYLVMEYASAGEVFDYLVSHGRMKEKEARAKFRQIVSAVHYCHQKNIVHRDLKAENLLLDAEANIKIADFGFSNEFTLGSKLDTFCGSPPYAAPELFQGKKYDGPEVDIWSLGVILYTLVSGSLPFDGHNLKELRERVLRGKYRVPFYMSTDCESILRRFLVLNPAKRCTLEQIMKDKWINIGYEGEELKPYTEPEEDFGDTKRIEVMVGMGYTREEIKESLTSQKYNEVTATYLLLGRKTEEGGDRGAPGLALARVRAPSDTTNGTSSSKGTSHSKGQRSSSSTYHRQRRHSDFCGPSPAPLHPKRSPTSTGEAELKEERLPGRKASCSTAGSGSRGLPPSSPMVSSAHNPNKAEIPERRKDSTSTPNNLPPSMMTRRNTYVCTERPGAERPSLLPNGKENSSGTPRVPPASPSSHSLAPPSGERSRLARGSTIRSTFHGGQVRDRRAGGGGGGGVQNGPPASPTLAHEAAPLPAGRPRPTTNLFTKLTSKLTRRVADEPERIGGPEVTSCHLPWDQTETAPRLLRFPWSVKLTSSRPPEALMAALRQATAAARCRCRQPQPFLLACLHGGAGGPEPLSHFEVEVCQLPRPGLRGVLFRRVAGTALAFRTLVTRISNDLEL
- EXPERIMENTAL_CONDITIONS: at 1 µM
QUANTITY_NAME: inhibition (%)
Just the number in %, nothing appended.

// worked examples, inhibition included
CCS(=O)(=O)c1ccc(OC)c(Nc2ncc(-c3cccc(-c4ccccc4F)c3)o2)c1	1.22
CCc1ccc(Oc2nccc(-c3c(-c4ccc(F)cc4)ncn3C3CCNCC3)n2)cc1	4.67

Shift focus to the following entry.
Form: item Cc1ccc(C(=O)NC2CCC2)cc1-c1ccc(C(=O)NCC2CC2)cc1 ; test system MAP/microtubule affinity-regulating kinase 4 (Homo sapiens) (UniProt Q96L34); inhibition: 0.72

---

- STUDY_TARGET: Leukocyte tyrosine kinase receptor (Homo sapiens) (UniProt P29376)
- Sequence (P29376 whole entry): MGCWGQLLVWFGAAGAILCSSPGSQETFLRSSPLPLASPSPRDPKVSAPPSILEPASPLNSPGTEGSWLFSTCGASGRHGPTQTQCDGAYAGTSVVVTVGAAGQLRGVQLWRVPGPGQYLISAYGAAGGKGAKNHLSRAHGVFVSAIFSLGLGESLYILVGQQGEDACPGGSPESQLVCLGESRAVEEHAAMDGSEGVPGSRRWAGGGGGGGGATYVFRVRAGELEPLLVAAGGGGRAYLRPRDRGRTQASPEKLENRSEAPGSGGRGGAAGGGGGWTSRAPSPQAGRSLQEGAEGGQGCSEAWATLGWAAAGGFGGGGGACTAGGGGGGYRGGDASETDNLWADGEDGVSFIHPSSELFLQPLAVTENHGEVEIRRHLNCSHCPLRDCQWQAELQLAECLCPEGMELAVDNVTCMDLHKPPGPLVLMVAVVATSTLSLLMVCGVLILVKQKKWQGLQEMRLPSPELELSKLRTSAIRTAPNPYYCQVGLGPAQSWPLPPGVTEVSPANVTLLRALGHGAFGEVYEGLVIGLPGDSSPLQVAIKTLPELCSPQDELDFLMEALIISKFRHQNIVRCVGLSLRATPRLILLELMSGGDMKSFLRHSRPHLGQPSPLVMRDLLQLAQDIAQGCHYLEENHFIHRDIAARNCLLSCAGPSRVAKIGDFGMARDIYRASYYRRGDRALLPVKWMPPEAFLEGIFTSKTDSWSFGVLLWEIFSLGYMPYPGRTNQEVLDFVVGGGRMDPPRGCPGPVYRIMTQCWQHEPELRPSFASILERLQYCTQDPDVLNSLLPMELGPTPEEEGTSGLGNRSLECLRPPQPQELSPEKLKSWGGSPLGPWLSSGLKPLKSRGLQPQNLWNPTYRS
- EXPERIMENTAL_CONDITIONS: at 0.1 µM
- Description: GSK_PKIS: LTK mean inhibition at 0.1 uM [Nanosyn]
QUANTITY_NAME: inhibition
# output: numeric value plus its unit

// worked examples, inhibition included
COc1ccc2cc(-c3c(-c4ccncc4)nc(-c4ccc([S+](C)[O-])cc4C)n3C)ccc2c1 (stereo not given)	0.03%
Fc1ccc(-c2nc3n(c2-c2ccncc2)CCS3)cc1	1.98%
Clc1ccc(CNc2nccc(-c3cnn4ncccc34)n2)cc1	0.55%
COc1cccc(/C=N/Nc2ncnc3c2cnn3-c2cccc(OC)c2)c1	5%
O=C(Nc1ccc(Oc2ccc3[nH]c(NC(=O)c4ccccc4)nc3c2)cc1)Nc1cc(C(F)(F)F)ccc1F	1.84%
Cc1ccc(C(=O)NC2CCC2)cc1-c1ccc(C(=O)NCC2CC2)cc1	2.34%
CCC(=O)Nc1ccc(C)c(-c2ccc(C(=O)NCC3CC3)cc2)c1	4.98%
COc1cccc(-n2cnc3c(N/N=C/c4ccncc4)ncnc32)c1	-1.69%
NS(=O)(=O)c1ccc(Nc2cc(-c3ccc(O)c(F)c3)n[nH]2)cc1	-0.58%

Shift focus to the following entry.
inhibition in this record for C[C@@H](Oc1cc(-n2cnc3ccc(OCC4CCN(C)CC4)cc32)sc1C(N)=O)c1ccccc1Cl : 4.38%

---

- STUDY_TARGET: Phosphorylase b kinase gamma catalytic chain, liver/testis isoform (Homo sapiens);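 further: reported value is the mean inhibition of PHKG2 from the GSK_PKIS screening set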
- Sequence (whole entry): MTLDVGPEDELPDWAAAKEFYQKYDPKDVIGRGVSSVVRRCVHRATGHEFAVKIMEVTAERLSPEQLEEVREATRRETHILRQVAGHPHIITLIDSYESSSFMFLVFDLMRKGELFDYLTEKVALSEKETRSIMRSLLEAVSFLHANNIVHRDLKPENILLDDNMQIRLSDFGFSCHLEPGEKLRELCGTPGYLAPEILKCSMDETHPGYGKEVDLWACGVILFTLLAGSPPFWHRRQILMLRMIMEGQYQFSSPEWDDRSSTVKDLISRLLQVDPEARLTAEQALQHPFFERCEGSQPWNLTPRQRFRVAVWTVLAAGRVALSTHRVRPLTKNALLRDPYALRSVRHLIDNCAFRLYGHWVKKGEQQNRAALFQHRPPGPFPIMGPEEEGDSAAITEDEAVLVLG
- EXPERIMENTAL_CONDITIONS: at 1 µM
QUANTITY_NAME: inhibition (%)
Just the number in %, nothing appended.

NC(=O)c1cc(-c2ccc(F)cc2)cc(-c2ccncc2)c1N	5.76

inhibition in this record for O=C(Nc1n[nH]c2cc(-c3ccccc3)ccc12)C1CC1 : 4.5

inhibition in this record for Fc1ccc(-c2ncn(C3CCNCC3)c2-c2ccnc(Oc3ccc(Oc4ccccc4)cc3)n2)cc1 : 6.26

inhibition in this record for COc1cc(N2CCN(C(C)C)CC2)ccc1Nc1nc(Nc2ccc(F)cc2C(=O)NC[C@@H](O)CO)c2cc[nH]c2n1 : 21.1

inhibition in this record for c1ccc(-c2n[nH]cc2-c2ccnc(-c3ccc(OCCN4CCOCC4)cc3)c2)nc1 : -3.23

inhibition in this record for O=C1NC(=O)C(c2cccc(Cl)c2)=C1Nc1ccc(Cl)c(C(=O)O)c1 : 5.29

inhibition in this record for NS(=O)(=O)c1ccc(N/N=C2\C(=O)Nc3ccc(C(=O)NCCCn4ccnc4)cc32)cc1 : 10

inhibition in this record for Cc1nnc(-c2ccc(C)c(-c3ccc(C(=O)NCc4ccc(Cl)cc4)cc3)c2)o1 : 5.11

inhibition in this record for C/C(Nc1ccc(S(N)(=O)=O)cc1)=C1/C(=O)Nc2ccccc21 : 19.6

inhibition in this record for COc1ccc(C2=C(N3CCc4ccccc43)C(=O)NC2=O)cc1 : 4.69

meta.source: ChEMBL document CHEMBL1961873
